B1: SPDEF (parent)
chain: YPEDSSWAAKAPGASSREEPPEEP

# Variants of: B1
# ASSAY_OVERVIEW: protein stability index of a GFP-peptide fusion (GPS, HEK-293T) (PSI 1-6); higher = more stable;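 also: lentivirally expressed fusions sorted by FACS into six bins by GFP to DsRed ratio, PSI derived from sequencing read proportions per bin multiplied by bin number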
# DETAILS: c terminus: a fixed tail appended
EXPERIMENTAL_ENDPOINT: protein stability index
Reply with just the number.

In [3]: df
Out[3]:
   mutation_annotation  readout_value
0                  A9M           4.11
1                  E3A           2.01
2                  S5W           3.99

Query: Consider the variant shown here: G13Y What is its recorded protein stability index?
Reply: 3.49

Query: For the variant E19F , what protein stability index is on record?
Reply: 3.06

Query: May I ask what protein stability index has been recorded for P2C ?
Reply: 1.94
